biological target: Gal-4CL (Homo sapiens); construct: designated as Gal-4NL (aa 1-160), and Gal-4CL (aa 169-323), respectively; made in house; host or cells: E. coli Rosetta (DE3) pLysS; experiment: competitive ELISA, inhibition of binding of Gal-4CL subunit to immobilized ASF; settings: Gal-4CL
Sequence (P56470 169-323): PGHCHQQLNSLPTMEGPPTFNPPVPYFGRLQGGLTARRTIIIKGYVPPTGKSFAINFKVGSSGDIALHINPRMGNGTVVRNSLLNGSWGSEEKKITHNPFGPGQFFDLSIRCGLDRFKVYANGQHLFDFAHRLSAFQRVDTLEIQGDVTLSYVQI
RECORDED METRIC: rp Gal-4CL, relative potency (IC50 (lactose)/IC50 (ligand))
Would you mind answering with just the numeric figure?

Reading of rp Gal-4CL, relative potency (IC50 (lactose)/IC50 (ligand)) for OC[C@H]1O[C@@H](O[C@H]2[C@H](O)[C@@H](O)[C@H](O)O[C@@H]2CO)[C@H](O)[C@@H](O)[C@H]1O [lactose (1), lactose] with Gal-4CL (Homo sapiens): 1.0

Here C[C@@H]1O[C@@H](O[C@H]2[C@H](O[C@H]3[C@H](O)[C@@H](O)C(O)O[C@@H]3CO)O[C@H](CO)[C@H](O)[C@@H]2O[C@H]2O[C@H](CO)[C@H](O)[C@H](O)[C@H]2O)[C@@H](O)[C@H](O)[C@@H]1O (some centres unmarked) [blood-group antigen B (6), blood-group antigen B type 6] was tested on Gal-4CL (Homo sapiens), and its rp Gal-4CL, relative potency (IC50 (lactose)/IC50 (ligand)) came to 28
